Origin of values: PubChem BioAssay AID179

The entries below are paired with their reported IC50.
- System: CEM cells HIV-1 protection, formazan growth assay
- Test Protocol: NCI AIDS Antiviral Assay
- Assay Setup: measured here: growth of uninfected CEM cells

Examples with their reported IC50 follow.
Molecule	Result
CC1OC(OC2C(CO)OC(O[C@H]3CC[C@@]4(C)C(=CC[C@H]5[C@@H]6C[C@@H]7O[C@](O)(CC[C@H](CO)COC8OC(CO)C(O)C(O)C8O)[C@@H](C)[C@@H]7[C@@]6(C)CC[C@@H]54)C3)C(OC3OC(C)C(O)C(O)C3O)C2O)C(O)C(O)C1O (some centres undefined)	> 200 µM
COc1cc(Br)c(-c2coc3c(OC)c(OC)ccc3c2=O)cc1OC	> 50.1 µM
CC(C)(C)OC(=O)N[C@H]1CC(=O)c2ccccc2N(CC(=O)O)C1=O	> 251 µM
CC1=C[C@@]2(C=C(C(=O)O)[C@@]34CCCC(C)(C)C3C[C@@H]2OC4)OC1=O (some centres undefined)	> 380 µM
CNC(=O)CCNC(=O)CCC(=O)OC	> 200 µM

// field: IC50; key: Cc1ccc2c(c1)sc1nnc(Cl)n12 ; value = > 200 µM

IC50 in this record for Nc1ccc2cc(S(=O)(=O)O)cc(O)c2c1N=Nc1ccc(NC(=O)Nc2ccc(N=Nc3c(N)ccc4cc(S(=O)(=O)O)cc(O)c34)c(S(=O)(=O)O)c2)cc1S(=O)(=O)O : > 200 µM
